- target: Luciferin 4-monooxygenase (Photinus pyralis) (UniProt P08659)
- Sequence (P08659 whole entry, looked up): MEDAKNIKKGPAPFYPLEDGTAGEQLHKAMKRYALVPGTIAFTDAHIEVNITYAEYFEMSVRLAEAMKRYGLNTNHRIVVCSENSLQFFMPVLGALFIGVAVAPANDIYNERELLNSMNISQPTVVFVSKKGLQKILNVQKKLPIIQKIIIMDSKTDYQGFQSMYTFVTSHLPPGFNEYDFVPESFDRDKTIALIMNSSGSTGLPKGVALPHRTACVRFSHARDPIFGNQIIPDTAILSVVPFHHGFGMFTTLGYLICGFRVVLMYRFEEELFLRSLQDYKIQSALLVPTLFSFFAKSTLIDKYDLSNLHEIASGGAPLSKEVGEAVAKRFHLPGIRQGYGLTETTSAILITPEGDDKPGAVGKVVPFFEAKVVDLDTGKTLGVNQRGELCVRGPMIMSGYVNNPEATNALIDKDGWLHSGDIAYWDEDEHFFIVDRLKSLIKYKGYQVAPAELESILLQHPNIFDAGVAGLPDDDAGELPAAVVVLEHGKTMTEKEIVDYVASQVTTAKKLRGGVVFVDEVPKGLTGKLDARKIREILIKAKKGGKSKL
- assay_details: qHTS assay to identify small molecule inhibitors of firefly luciferase (AID 1224835); note: nearly all actives have a fitted effect of over 25% in size; note: potency is the fitted concentration of half-maximal effect
- cond: purified P. pyralis luciferase, luminescence inhibition; series mostly up to 115 µM
Records with an inconclusive call do not appear. Active and inactive are the calls of the source. Calls come from the whole dose curve; as a rule, active = well fitted inhibition curve with a large enough effect in the repeat runs; inconclusive = weak or mixed curves; inactive = flat fitted curve, though single readings scatter.
measured_parameter: Potency

Would you please look over these solved cases?
>  <molecule>
C/C=C(\C)C(=O)OCc1ccccc1

>  <Potency>
63.3 µM (active)

$$$$
>  <molecule>
NNc1nc(-c2ccc(N)cc2)cs1

>  <Potency>
35.6 µM (active)

$$$$
>  <molecule>
CCC(C)(C)C1CCCCC1OC(C)=O (stereo unspecified)

>  <Potency>
inactive

$$$$
>  <molecule>
CCN(C(=O)c1cc(C)cc(OC[C@H](C)Nc2ccncc2)c1)C(C)C

>  <Potency>
inactive

$$$$
>  <molecule>
C=C(C)C(=O)OCC(O)COc1ccc(C(C)(C)c2ccc(OCC(O)COC(=O)C(=C)C)cc2)cc1 (stereo unspecified)

>  <Potency>
inactive

$$$$

(Q) For the molecule `C/C(=C(/OCCOc1ccc(Cl)cc1)c1ccc(Cl)cc1Cl)n1ccnc1` , what Potency is on record?
(A) inactive

(Q) Then this molecule: `C=CC(=O)OCC(CO)(COC(=O)C=C)COC(=O)C=C`
(A) inactive

(Q) Same again, this time with `NNc1nc(-c2ccccc2)cs1`
(A) 32.6 µM (active)

(Q) Same read-out for `O=C(OCC(COC(=O)c1ccccc1)(COC(=O)c1ccccc1)COC(=O)c1ccccc1)c1ccccc1` ?
(A) inactive

(Q) // same read-out, input: `CCCCCCCC/C=C/CCCCCCCC1=NCCN1CCO`
(A) inactive

(Q) Param item: `CCCCN1C(=O)[C@@H]([C@H](O)C2CCCCC2)NC(=O)C12CCN(Cc1ccc(Oc3ccc(C(=O)O)cc3)cc1)CC2`
(A) inactive
